- assaySystem: L-lactate dehydrogenase (Plasmodium falciparum (isolate CDC / Honduras)) (UniProt Q27743)
- Sequence (Q27743 whole entry, looked up): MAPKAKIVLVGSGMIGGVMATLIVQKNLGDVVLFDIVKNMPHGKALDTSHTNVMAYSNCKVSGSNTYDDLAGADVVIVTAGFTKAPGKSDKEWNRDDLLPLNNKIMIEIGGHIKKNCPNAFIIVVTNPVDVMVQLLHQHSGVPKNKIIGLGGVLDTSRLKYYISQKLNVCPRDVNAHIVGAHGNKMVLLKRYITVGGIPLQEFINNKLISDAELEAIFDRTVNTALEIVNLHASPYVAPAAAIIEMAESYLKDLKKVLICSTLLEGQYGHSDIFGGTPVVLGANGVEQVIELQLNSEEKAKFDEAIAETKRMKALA
- experiment: PfLDH activity inhibition – cell lysate, 3D7 strain, counter-screen for P. falciparum growth inhibition project (AID 2304);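 note: 0% = vehicle and 100% = reference inhibitor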
- measurementParameters: P. falciparum 3D7 crude extract, LDH APAD/NBT absorbance; at 2 µM; hits give high values
Recorded inhibition, one value per entry.
Report the value in % with no unit label.

compound	inhibition / %
O=C(/C=C/c1ccc(Cl)c(Cl)c1)NCCCCCN1CCC(CCNC(=O)/C=C/c2ccccc2F)CC1	-2
CCOC(=O)c1ccc(-c2cnc(N)c(-c3nc4c(C)cccc4[nH]3)c2)cc1	-4

Please report the recorded inhibition for Nc1nc(N)c2c(CCc3ccc(Cl)c(Cl)c3)cccc2n1 .
6

# input compound: CCCCCCCn1c2c(c(=N)c3c1CCC3)CCCC2 ; wanted: its inhibition
1

Given O=C(Cn1c(=O)cnc2ccccc21)Nc1cccc(C(=O)Nc2cccc(C(F)(F)F)c2)c1 , state its recorded inhibition.
3

Values from PubChem BioAssay
